# experimentalTarget: glutathione S-transferase (Schistosoma japonicum GST tag binding GSH beads)
# protocolDescription: GST–glutathione bead interaction interference profiling – biochemical, multiplex beads, flow cytometry, profiling panel (AID 1769);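 note: target is a GST and green fluorescent protein fusion captured on glutathione beads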
# studyConditions: flow cytometry fluorescence
pEC50 for assorted compounds
Please keep in mind that pEC50 is minus log10 of the molar concentration; only the number is needed.

Examples from the recorded data:
O=C(Nc1cccc(-c2nnc(-c3ccco3)o2)c1)c1ccccc1 | 4.39
COC(=O)c1cc(NC(=O)c2cccc(Cl)c2)c(=O)oc1/C=C/Nc1cc(C)cc(C)c1 | 6.25

For CCOC(=O)c1c2c3c(c(Cl)ccc3[nH]c1=O)C(=O)c1ccccc1-2 the compound record lists pEC50 as 6.40

* * *

EC50 for assorted compounds
# experimentalTarget: glutathione S-transferase (Schistosoma japonicum GST tag binding GSH beads)
# protocolDescription: GST–glutathione bead interaction interference profiling – biochemical, multiplex beads, flow cytometry, profiling panel (AID 1769);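 note: target is a GST and green fluorescent protein fusion captured on glutathione beads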
# studyConditions: flow cytometry fluorescence

CCCCn1c(O)c(/C=C/C=C/C=Nc2ccccc2)sc1=S | 0.576 µM

For COc1ccc(S(=O)(=O)N2CCOCC2)cc1NC(=O)COc1cccnc1[N+](=O)[O-] the compound record lists EC50 as 64 µM

For O=c1c2ccccc2nc2c3ccccc3c(Cl)nn12 the compound record lists EC50 as 2.04 µM

For O=C(COC(=O)c1ccc2c(c1[N+](=O)[O-])C(=O)c1ccccc1C2=O)NC1CC1 the compound record lists EC50 as 28 µM

* * *

# experimentalTarget: glutathione S-transferase (Schistosoma japonicum GST tag binding GSH beads)
# protocolDescription: GST–glutathione bead interaction interference profiling – biochemical, multiplex beads, flow cytometry, profiling panel (AID 1769);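 note: target is a GST and green fluorescent protein fusion captured on glutathione beads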
# studyConditions: flow cytometry fluorescence
pEC50: −log10 of the molar value.
Decide using pEC50: a value greater than or equal to 6 is t, a smaller one is f.

COc1ccc2o/c(=N/NC(=O)c3cccs3)c(C(N)=O)cc2c1 | f
COc1ccc(C(=O)Nc2nc3ccccc3[nH]2)cc1S(=O)(=O)N1CCOCC1 | f

QUERY: Hi, just wondering whether COc1cc(N2CCCC2)c(OC)cc1/C=C(/C#N)c1ccc(Br)cc1 shows pEC50 of 6 or higher.
RESULT: t

QUERY: Hi, just wondering whether Cc1ccc(/C=N/N(C)C2=NS(=O)(=O)c3ccccc32)o1 shows pEC50 of 6 or higher.
RESULT: f

QUERY: Hi, just wondering whether CN(C)S(=O)(=O)c1ccc(C(=O)NNc2nc(-c3ccccc3)c3cc(Br)ccc3n2)cc1 shows pEC50 of 6 or higher.
RESULT: f

* * *

EC50 for assorted compounds
# experimentalTarget: glutathione S-transferase (Schistosoma japonicum GST tag binding GSH beads)
# protocolDescription: GST–glutathione bead interaction interference profiling – biochemical, multiplex beads, flow cytometry, profiling panel (AID 1769);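 note: target is a GST and green fluorescent protein fusion captured on glutathione beads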
# studyConditions: flow cytometry fluorescence

Examples from the recorded data:
O=C(CSc1ccc2nnc(-c3ccccn3)n2n1)Nc1nccs1 | 13000 nM
COc1ccc(N/C=C/c2nc(SC)nnc2C)cc1 | 2760 nM
COc1ccc2c(C)nc(N/C(N)=N/S(=O)(=O)c3ccc(C)cc3)nc2c1 | 7510 nM

Measured EC50 for this entry CC(=O)Nc1ccc(Nc2ccc3c4c(cc(=O)n3C)-c3ccccc3C(=O)c24)cc1 on glutathione S-transferase (Schistosoma japonicum GST tag binding GSH beads): 151 nM

Measured EC50 for this entry COCCN1C(=O)/C(=C/c2ccc(N3CCCC3)cc2C)SC1=S on glutathione S-transferase (Schistosoma japonicum GST tag binding GSH beads): 1690 nM
